# credit: patent US20230339890A1

Biological target: Recombinant human CYP51A1 (lanosterol-14a-demethylase) (Homo sapiens (Human))
Sequence (Q16850 whole entry): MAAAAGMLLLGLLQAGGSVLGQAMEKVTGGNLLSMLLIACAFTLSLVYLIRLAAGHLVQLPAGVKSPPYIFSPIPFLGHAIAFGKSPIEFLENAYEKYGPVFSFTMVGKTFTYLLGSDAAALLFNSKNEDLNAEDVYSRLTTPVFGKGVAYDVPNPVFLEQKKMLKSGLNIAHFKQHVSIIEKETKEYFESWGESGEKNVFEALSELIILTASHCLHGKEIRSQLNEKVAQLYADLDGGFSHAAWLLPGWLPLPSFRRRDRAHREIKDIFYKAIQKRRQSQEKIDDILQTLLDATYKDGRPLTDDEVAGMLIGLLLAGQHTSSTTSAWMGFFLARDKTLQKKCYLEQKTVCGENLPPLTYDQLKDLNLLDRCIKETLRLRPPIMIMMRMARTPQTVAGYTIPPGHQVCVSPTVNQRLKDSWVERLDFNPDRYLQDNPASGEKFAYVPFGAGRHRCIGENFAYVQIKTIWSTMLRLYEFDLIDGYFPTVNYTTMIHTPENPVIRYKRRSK
Test: Inhibition of CYP51A1, fluorescent substrate BOMCC
Details: recombinant human CYP51A1 coexpressed with CYP reductase in bacterial membranes, 8-point concentration-response, read-out: CYP51 IC50
MEASURE: IC50

>  <MOLECULE>
CC(C)(C)OC(=O)N(CCc1ccc2ccccc2c1)CC(O)c1cccnc1 (stereo not drawn)

>  <IC50>
≤ 100 nM

$$$$
>  <MOLECULE>
O=C(Cc1ccc(C(F)(F)F)nc1)N(CC(O)c1cnccn1)C1CCC1 (stereo not drawn)

>  <IC50>
100 to 1000 nM

$$$$
>  <MOLECULE>
CCCN(C[C@@H](O)c1cccnc1)C(=O)Cc1cncc(Cl)c1

>  <IC50>
> 1000 nM

$$$$
>  <MOLECULE>
CCCN(C[C@@H](O)c1cccnc1)C(=O)C1Cc2cc(Cl)c(Br)cc2C1 (stereo partly drawn)

>  <IC50>
≤ 100 nM

$$$$
>  <MOLECULE>
CC(C)N(C[C@@H](O)c1cccnc1)C(=O)Cc1ccc(C(F)(F)F)nc1

>  <IC50>
100 to 1000 nM

$$$$

Problem: If you can, please state the reported IC50 value of CCCN(C[C@@H](O)c1cccnc1)C(=O)Cc1ccc2cc(Cl)sc2c1 .
Solution: ≤ 100 nM

Problem: If you can, please state the reported IC50 value of CCC(=O)N(CC1Cc2cc(Cl)c(Cl)cc2C1)C[C@@H](O)c1cccnc1 .
Solution: 100 to 1000 nM

Problem: If you can, please state the reported IC50 value of CCCN(C[C@@H](O)c1cccnc1)C(=O)Cc1ccc(Cl)c(Cl)c1 .
Solution: ≤ 100 nM

Problem: If you can, please state the reported IC50 value of CCCN(CC(O)c1cncc(Br)c1)C(=O)Cc1ccc(Cl)c(Cl)c1 (stereo not drawn) .
Solution: > 1000 nM
